Data provenance is ChEMBL document CHEMBL1135396.

Biological target: Sodium/potassium-transporting ATPase
Assay: 50% displacement of the specific [3H]ouabain binding from the dog kidney Na+/K+ ATPase
Format: protein-complex assay, Canis lupus familiaris
Hi! Could you tag entries with IC50 below 3 µM as 1.0, and those at or above as 0.0? Much appreciated.

CN(C)CCO/N=C/[C@H]1CC[C@]2(O)C[C@@H](c3ccccc3)CC[C@]12C = 0.0

### Prompt Criterion: IC50 strictly below 3 µM. Is it met by CN(C)CCO/N=C/[C@H]1CC[C@]2(O)C[C@@H](c3ccc(OCCN(C)C)cc3)CC[C@]12C ?
### Response 1.0

### Prompt Dear reviewer, please state whether C[C@]12CC[C@H](C3CCCCC3)C[C@@]1(O)CC[C@@H]2/C=N/N=C(N)N has IC50 strictly beneath 3 µM.
### Response 0.0

### Prompt Could you please tell me whether IC50 recorded for C[C@]12CC[C@H](c3cccc(CO)c3)C[C@@]1(O)CC[C@@H]2/C=N/OCCN is less than 3 µM?
### Response 1.0

### Prompt Identify whether the molecule CN(C)CCO/N=C/[C@H]1CC[C@]2(O)[C@@H]3CC[C@@H]4C[C@@H](O)CC[C@]4(C)[C@H]3CC[C@]12C records IC50 below 3 µM.
### Response 1.0

### Prompt IC50 strictly < 3 µM for this molecule? CN(C)CCO/N=C/[C@H]1CC[C@]2(O)C[C@@H](c3ccncc3)CC[C@]12C
### Response 1.0

### Prompt # TODO verify IC50 < 3 µM strictly for this molecule: CN(C)CCO/N=C/[C@H]1CC[C@]2(O)C/C(=C/c3ccccc3)CC[C@]12C
### Response 0.0
